// reported pKi per item
Biological target: human σ2/TMEM97 receptor (Homo sapiens)
Construct: expressed in transfected cells; host or cells: HEK-293
Sequence (Q5BJF2 whole entry): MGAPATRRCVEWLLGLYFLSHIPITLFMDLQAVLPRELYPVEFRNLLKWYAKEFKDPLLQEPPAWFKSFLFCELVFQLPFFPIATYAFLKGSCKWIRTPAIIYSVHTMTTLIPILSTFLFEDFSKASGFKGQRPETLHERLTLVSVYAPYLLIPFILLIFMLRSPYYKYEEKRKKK
Assay: Binding assay to human σ2/TMEM97 receptor ([3H]-DTG)
Conditions: transfected HEK-293 membranes, 10 nM [3H]-DTG, 25° C., 120 minutes; read-out: Binding σ-[…] (binding to σ2-receptor expressed as Ki)
Experimental: Binding Assay to Human σ2/TMEM97 Receptor. Transfected HEK-293 membranes (15 μg) were incubated with 10 nM [^3H]-1,3-Di-o-tolylguanidine (DTG) in assay buffer containing Tris-HCl 50 mM at pH 8.0. NSB (non-specific binding) was measured by adding 10 μM haloperidol. […] Filters were dried and counted at approximately 40% efficiency in a MicroBeta scintillation counter (Perkin-Elmer) using EcoScint liquid scintillation cocktail.
pKi: −log10 of the molar value.

# structure-smiles, target-system, pKi
records = [
    ("CN(Cc1cc(C#N)ccc1F)C1CCN(C(=O)N2CC(C)(C)c3ncccc32)CC1", "human σ2/TMEM97 receptor (Homo sapiens)", "6.30 to 7.00"),
    ("COc1cccc(CN(C)C2CCN(C(=O)N3CC(C)(C)c4nc(C)ccc43)CC2)c1", "human σ2/TMEM97 receptor (Homo sapiens)", "> 7.00"),
    ("Cc1ccc2c(n1)C(C)(C)CN2C(=O)NC1CCN(Cc2ccc(F)cc2)CC1", "human σ2/TMEM97 receptor (Homo sapiens)", "6.00 to 6.30"),
    ("Cc1ccc2c(n1)C(C)(C)CN2C(=O)N1CCC2(CCN(Cc3cccc(S(C)(=O)=O)c3)CC2)C1", "human σ2/TMEM97 receptor (Homo sapiens)", "> 7.00"),
]

---

Target: human σ2/TMEM97 receptor (Homo sapiens)
Construct: expressed in transfected cells; host or cells: HEK-293
Test: Binding assay to human σ2/TMEM97 receptor ([3H]-DTG)
Settings: transfected HEK-293 membranes, 10 nM [3H]-DTG, 25° C., 120 minutes; read-out: Binding σ-[…] (binding to σ2-receptor expressed as Ki)
pKi: −log10 of the molar value.
Overview of recorded pKi for various compounds
reported-metric: pKi

# structure-smiles, target-system, reported-metric, experimental-value
rows = [
    ("Cc1nc2c(cc1F)N(C(=O)NC[C@@H](c1ccccc1)N(C)C)CC2(C)C", "human σ2/TMEM97 receptor (Homo sapiens)", "pKi", "< 6.00"),
    ("Cc1ccc2c(n1)C(C)(C)CN2C(=O)[C@@H]1CN(Cc2ccccc2)C[C@H]1C", "human σ2/TMEM97 receptor (Homo sapiens)", "pKi", "< 6.00"),
    ("Cc1ccc2c(n1)C(C)(C)CN2C(=O)N1CCC(N(C)Cc2ccc(F)cc2)CC1", "human σ2/TMEM97 receptor (Homo sapiens)", "pKi", "> 7.00"),
    ("CC1(C)CN(C(=O)N2CCC3(CCN(Cc4ccc(F)cn4)CC3)C2)c2cccnc21", "human σ2/TMEM97 receptor (Homo sapiens)", "pKi", "> 7.00"),
    ("Cc1ccc2c(n1)C(C)(C)CN2C(=O)N1CCC2(CCN(CCC3CCOCC3)CC2)C1", "human σ2/TMEM97 receptor (Homo sapiens)", "pKi", "> 7.00"),
    ("CC1(C)CN(C(=O)NC2CCN(Cc3ccccc3)CC2)c2cccnc21", "human σ2/TMEM97 receptor (Homo sapiens)", "pKi", "< 6.00"),
    ("CC(C)(C)CCN1CCC(CNC(=O)N2CC(C)(C)c3ncccc32)CC1", "human σ2/TMEM97 receptor (Homo sapiens)", "pKi", "> 7.00"),
    ("CN[C@H](CNC(=O)N1CC(C)(C)c2nc(C)ccc21)c1ccccc1", "human σ2/TMEM97 receptor (Homo sapiens)", "pKi", "< 6.00"),
    ("Cc1ccc2c(n1)C(C)(C)CN2C(=O)C1CN(Cc2cccc(F)c2)C1", "human σ2/TMEM97 receptor (Homo sapiens)", "pKi", "6.00 to 6.30"),
    ("CC1(C)CN(C(=O)N2CCC3(CCN(Cc4ccc(C#N)c(F)c4)CC3)CC2)c2cccnc21", "human σ2/TMEM97 receptor (Homo sapiens)", "pKi", "6.30 to 7.00"),
    ("Cc1ccc2c(n1)C(C)(C)CN2C(=O)[C@H]1CC[C@H](N(C)CC2CCOCC2)CC1", "human σ2/TMEM97 receptor (Homo sapiens)", "pKi", "> 7.00"),
    ("Cc1ccc2c(n1)C(C)(C)CN2C(=O)N1CCC(N(C)CCC(C)C)CC1", "human σ2/TMEM97 receptor (Homo sapiens)", "pKi", "> 7.00"),
    ("CC1(C)CN(C(=O)N2CCC3(CCN(Cc4ccccc4F)CC3)CC2)c2cccnc21", "human σ2/TMEM97 receptor (Homo sapiens)", "pKi", "> 7.00"),
    ("Cc1ccc2c(n1)C(C)(C)CN2C(=O)N1CC[C@@H](N(C)Cc2ccccc2)C1", "human σ2/TMEM97 receptor (Homo sapiens)", "pKi", "< 6.00"),
    ("Cc1ccc2c(n1)C(C)(C)CN2C(=O)N1CC2(CN(Cc3ccccc3)C2)C1", "human σ2/TMEM97 receptor (Homo sapiens)", "pKi", "6.00 to 6.30"),
    ("Cc1ccc2c(n1)C(C)(C)CN2C(=O)N1CCC2(CCN(C3CCOCC3)CC2)C1", "human σ2/TMEM97 receptor (Homo sapiens)", "pKi", "> 7.00"),
    ("Cc1ccc2c(n1)C(C)(C)CN2C(=O)N1CCC(N(C)Cc2ccc(C#N)cc2)CC1", "human σ2/TMEM97 receptor (Homo sapiens)", "pKi", "> 7.00"),
]

---

Reported pKi by item:
Target: human σ2/TMEM97 receptor (Homo sapiens)
Construct: expressed in transfected cells; host or cells: HEK-293
Assay: Binding assay to human σ2/TMEM97 receptor ([3H]-DTG)
Settings: transfected HEK-293 membranes, 10 nM [3H]-DTG, 25° C., 120 minutes; read-out: Binding σ-[…] (binding to σ2-receptor expressed as Ki)
pKi: −log10 of the molar value.
reported-metric: pKi

# compound, target-system, reported-metric, experimental-value
measured = [
    ("CN(Cc1ccc(F)c(F)c1)C1CCN(C(=O)N2CC(C)(C)c3ncccc32)CC1 [Example 79]", "human σ2/TMEM97 receptor (Homo sapiens)", "pKi", "> 7.00"),
    ("Cc1ccc2c(n1)C(C)(C)CN2C(=O)[C@H]1CC[C@H](N(C)Cc2ccc(F)cc2F)CC1 [Example 172]", "human σ2/TMEM97 receptor (Homo sapiens)", "pKi", "> 7.00"),
    ("CC1(C)CN(C(=O)N2CCC3(CCN(Cc4cc(F)ccc4F)CC3)CC2)c2cccnc21 [Example 164]", "human σ2/TMEM97 receptor (Homo sapiens)", "pKi", "> 7.00"),
    ("CC(C)CCN(C)[C@H]1CCCCN(C(=O)N2CCc3ncccc32)C1 [Example 122]", "human σ2/TMEM97 receptor (Homo sapiens)", "pKi", "6.30 to 7.00"),
    ("Cc1ccc2c(n1)C(C)(C)CN2C(=O)N1CCC2(CCN(Cc3cccc(C#N)c3)CC2)C1 [Example 92]", "human σ2/TMEM97 receptor (Homo sapiens)", "pKi", "> 7.00"),
    ("Cc1ccc2c(n1)C(C)(C)CN2C(=O)N1CCC2(CCN(CC3CCOCC3)CC2)C1 [Example 105]", "human σ2/TMEM97 receptor (Homo sapiens)", "pKi", "> 7.00"),
    ("Cc1ccc2c(n1)C(C)(C)CN2C(=O)N1CCC2(CC1)CN(Cc1ccccc1)C2 [Example 93]", "human σ2/TMEM97 receptor (Homo sapiens)", "pKi", "6.30 to 7.00"),
    ("Cc1ccc2c(n1)C(C)(C)CN2C(=O)[C@H]1C[C@H](N(C)Cc2ccccc2)C1 [Example 137]", "human σ2/TMEM97 receptor (Homo sapiens)", "pKi", "6.30 to 7.00"),
    ("Cc1ccc2c(n1)C(C)(C)CN2C(=O)NC1CCN(Cc2ccc(C#N)cc2)CC1 [Example 24]", "human σ2/TMEM97 receptor (Homo sapiens)", "pKi", "< 6.00"),
    ("CC(C)CCN(C)[C@H]1CCCN(C(=O)N2CCc3ncccc32)C1 [Example 64]", "human σ2/TMEM97 receptor (Homo sapiens)", "pKi", "> 7.00"),
    ("CN(Cc1ccccc1)[C@H]1CC[C@@H](C(=O)N2CC(C)(C)c3ncccc32)CC1 [Example 127]", "human σ2/TMEM97 receptor (Homo sapiens)", "pKi", "> 7.00"),
    ("Cc1ccc2c(n1)C(C)(C)CN2C(=O)N1CCC(N(C)Cc2ccc(F)c(C#N)c2)CC1 [Example 60]", "human σ2/TMEM97 receptor (Homo sapiens)", "pKi", "> 7.00"),
    ("Cc1ccc2c(n1)C(C)(C)CN2C(=O)NCC(c1ccccc1F)N(C)C (centres unmarked) [Example 19]", "human σ2/TMEM97 receptor (Homo sapiens)", "pKi", "< 6.00"),
    ("CN(Cc1ccccc1F)[C@H]1CC[C@H](C(=O)N2CC(C)(C)c3ncccc32)CC1 [Example 175]", "human σ2/TMEM97 receptor (Homo sapiens)", "pKi", "> 7.00"),
    ("CN(Cc1cc(F)cc(C#N)c1)C1CCN(C(=O)N2CC(C)(C)c3ncccc32)CC1 [Example 76]", "human σ2/TMEM97 receptor (Homo sapiens)", "pKi", "6.00 to 6.30"),
    ("Cc1ccc2c(n1)C(C)(C)CN2C(=O)NC1CCN(Cc2ccc(F)c(F)c2)CC1 [Example 44]", "human σ2/TMEM97 receptor (Homo sapiens)", "pKi", "< 6.00"),
    ("CC1(C)CN(C(=O)N2CCC3(CCN(Cc4ccc(C#N)cc4F)CC3)CC2)c2cccnc21 [Example 165]", "human σ2/TMEM97 receptor (Homo sapiens)", "pKi", "> 7.00"),
]
